System: BT-549 breast
Assay: NCI-60 one-dose screen, 48 h
Conditions: 10 µM unless noted
Method: Growth inhibition of the BT-549 human tumor cell line is measured as a screen for anti-cancer activity. Cells are grown in 96 well plates and exposed to the test compound for 48 hours. Compounds are tested at a single concentration, which is 10^-5 M for most compounds. The reported endpoint is percent growth (GI% or GIPRCNT), where numbers from 0 - 100% represent growth inhibition, and numbers from -100% - 0 represent cell death. For example, a value of 40 represents 60% growth inhibition. […]
The panel holds about 83,000 compounds, 20% with a hit somewhere; the sample as a whole holds those more often. The source made the active and inactive calls. The calls were made as follows: active = growth percent below 10; inactive = the rest.
Outcomes: active, inactive

- compound: "Cc1ccc(S(=O)(=O)N/N=C\\c2cc(Cl)ccc2O)cc1"
  target_system: "BT-549 breast"
  cat: "inactive"
- compound: "CCCCn1c(=O)c2c(nc3n2CCCN3CCc2ccc(OCC(=O)NCCN(CC)CC)cc2)n(CCCC)c1=O"
  target_system: "BT-549 breast"
  cat: "inactive"
- compound: "COC(=O)/C=C1\\S/C(=N\\NS(=O)(=O)c2ccc(C)cc2)N(c2ccccc2)C1=O"
  target_system: "BT-549 breast"
  cat: "inactive"
- compound: "O=C(NCCCNc1cc(-c2cn(-c3ccccc3)nc2-c2cccc(O)c2)ccn1)c1ccc(F)cc1"
  target_system: "BT-549 breast"
  cat: "active"
- compound: "c1ccc(Nc2nc(-c3ccccn3)cs2)nc1"
  target_system: "BT-549 breast"
  cat: "inactive"
- compound: "Cc1ccc(N(C(=O)CCc2c[nH]c3ccccc23)[C@H](C(=O)Nc2ccc(Cl)cc2)c2cccc([N+](=O)[O-])c2)cc1"
  target_system: "BT-549 breast"
  cat: "inactive"
- compound: "C[C@]12CC[C@@H]3c4cc(OC(F)F)c(O)cc4CC[C@H]3[C@@H]1CC[C@@H]2OS(N)(=O)=O"
  target_system: "BT-549 breast"
  cat: "inactive"
- compound: "CCOC(=O)c1c2c(n3ccc(NC(=O)OC(C)(C)C)cc13)C(=O)c1ncccc1C2=O"
  target_system: "BT-549 breast"
  cat: "active"
- compound: "CCN1C(=O)N(CC)C2Nn3c(s/c(=C4\\C(=O)N(C)c5ccccc54)c3=O)=NC21 (stereo not given)"
  target_system: "BT-549 breast"
  cat: "inactive"
- compound: "O=[N+]([O-])c1ccc(C2CC(c3ccccc3)=Nc3ccccc3S2)cc1 (stereo not given)"
  target_system: "BT-549 breast"
  cat: "inactive"
- compound: "COC(=O)c1c2c(c(C)[n+]([O-])c1C)C(=O)C(NCc1ccc(F)c(Cl)c1)=CC2=O"
  target_system: "BT-549 breast"
  cat: "inactive"
- compound: "O=C(NCCNc1cc(-c2cn(-c3ccccc3)nc2-c2cccc(O)c2)ccn1)Nc1ccccc1"
  target_system: "BT-549 breast"
  cat: "inactive"
- compound: "CCN(CC)CCN1C(=O)c2c(c(C)c3c(oc4cc(O)ccc43)c2C)C1=O"
  target_system: "BT-549 breast"
  cat: "inactive"
- compound: "CCOc1c(C#N)nnc2c(C#N)c(NC(=O)c3ccccc3)nn12"
  target_system: "BT-549 breast"
  cat: "inactive"
- compound: "Cc1nc2ccccc2c(/C=C/c2ccc(Cl)cc2)c1C(=O)/C=C/c1ccc(F)cc1"
  target_system: "BT-549 breast"
  cat: "inactive"
- compound: "Nc1nc(N)c2c(n1)NC(c1ccccc1)C1CCc3ccccc3C1=N2 (stereo not given)"
  target_system: "BT-549 breast"
  cat: "inactive"
- compound: "CCc1ccccc1-n1c(N)c(C#N)c(-c2ccc(N(C)C)cc2)c(C#N)c1=O"
  target_system: "BT-549 breast"
  cat: "inactive"
- compound: "Cn1c(=O)c2c(nc(Cl)n2CCl)n(C)c1=O"
  target_system: "BT-549 breast"
  cat: "inactive"
- compound: "COc1ccc(C2=NN(C(=O)c3cc(OC)c(OC)c(OC)c3)C(c3ccc(Cl)cc3)C2)cc1OC (stereo not given)"
  target_system: "BT-549 breast"
  cat: "inactive"
- compound: "CCOC(=O)/C=C/c1cc2cc(-c3csc4ccccc34)ccc2[nH]1"
  target_system: "BT-549 breast"
  cat: "inactive"

FYI, the data here is from PubChem BioAssay (NCI).
